Tested on: ATCC 75295 rice line
Assay: Field plot test with AHAS-inhibiting herbicides, ATCC 75295
Format: in vivo
Details: three-leaf stage; per acre a.i.: Accent 0.50 ounce, Pursuit 1.00 ounce, Scepter 3.00 ounces, Beacon 0.57 ounce; 0.25% nonionic surfactant
Procedure: The resistance of these plants to several other AHAS-inhibiting herbicides was also tested. Nine-foot-long field plots were planted with seven rows of rice per plot. The test included nine check rice varieties, and the ATCC 75295 rice line. A shielded spray boom was used to apply herbicide, spraying six of the seven rows in each plot. […]

- molecule: "CCc1cnc(C2=NC(C)(C(C)C)C(=O)N2)c(C(=O)O)c1 (racemic)"
  Resistance of the rice line (in words): "good resistance"
- molecule: "CC(C)C1(C)N=C(c2nc3ccccc3cc2C(=O)O)NC1=O (stereo not shown)"
  Resistance of the rice line (in words): "good resistance"
